system_tested: ERK2[2-360(p-T185/p-Y187)]-Avi (Homo sapiens)
Construct: 400 pM ERK2[2-360(p-T185/p-Y187)]-Avi was added to the plate
Sequence (P28482 2-360 limits assumed): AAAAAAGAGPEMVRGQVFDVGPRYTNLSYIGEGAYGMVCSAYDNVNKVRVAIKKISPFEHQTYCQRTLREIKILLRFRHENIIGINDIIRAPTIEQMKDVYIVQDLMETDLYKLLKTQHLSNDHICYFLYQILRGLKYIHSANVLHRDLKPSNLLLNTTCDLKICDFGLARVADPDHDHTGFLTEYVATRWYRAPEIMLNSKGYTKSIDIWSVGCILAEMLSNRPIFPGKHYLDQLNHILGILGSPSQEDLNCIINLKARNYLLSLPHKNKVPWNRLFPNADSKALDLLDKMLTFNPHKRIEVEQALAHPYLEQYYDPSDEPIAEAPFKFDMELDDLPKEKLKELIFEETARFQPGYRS
assay_details: Biochemical assay (HTRF competition assay)
Type: binding
run_conditions: HTRF competition with Example 15 probe, overnight at RT; read-out: Biochemical qualified AC50
endpoint: AC50

| compound | endpoint | endpoint_value |
| --- | --- | --- |
| CC(C)O[C@H]1CC[C@H](Cn2c(C=O)c(C(=O)N3CCC(C(=O)N[C@H]4CC[C@H](C(=O)O)C[C@@H]4C)(c4ccc(F)cc4)CC3)c3cc(Cl)ccc32)CC1 [Example 11h] | AC50 | < 280 pM |
| CCc1c(C[C@H]2CC[C@H](OC(C)C)CC2)c2ccc(F)cc2n1C(=O)N1CCC(C(=O)N[C@H]2CC[C@H](C(=O)O)C[C@@H]2C)(c2ccc(F)cc2)CC1 | AC50 | < 280 pM |
| COCCc1c(C[C@H]2CC[C@H](OC(C)C)CC2)c2ccc(Cl)cc2n1C(=O)N1CCC(C(=O)N[C@H]2CC[C@H](C(=O)O)C[C@@H]2C)(c2ccc(F)cc2)CC1 | AC50 | < 280 pM |
| CCc1c(C[C@H]2CC[C@H](OC3CCOCC3)CC2)c2ccc(F)cc2n1C(=O)N1CCC(C(=O)N[C@H]2CC[C@H](C(=O)O)CC2(C)C)(c2ccc(F)cc2)CC1 | AC50 | < 280 pM |
